System: LXRa:RXRa (NR concentration 270 nM, RXRa partner concentration 90 nM)
Assay: PBM binding z-score (relative to random genomic background probes); higher = stronger binding; sequences stand for … in GC…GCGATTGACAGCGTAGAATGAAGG
Entries are grouped by PBM binding z-score into these classes: band A: < 0.8; band B: ≥ 0.8 and < 2; band C: ≥ 2

Problem: State the class of the sequence shown: `ATCTCTAGGTAAAAGTTCAGTGGATCCCGAGGAT`
Result: band B

Problem: Pick a category. Item: `CCGACTGGGGCGGAAAGGTTACCATACCATCCGG`
Result: band B

Problem: For the record `TCTTGTAGATCAACAGGAGGTTAAGCAAGATCGA` , report the class its PBM binding z-score corresponds to.
Result: band B

Problem: Entry `CCTACCAGGCCAATCTGGGTCACTCAAGGCTTGA` belongs to which category?
Result: band B

Problem: Using the reported PBM binding z-score, which band applies to `AGAATGAGGTTATACGAAGATCAGGGAAGAAAGT` ?
Result: band B

Problem: Kindly identify the class of `ATCTCGAGGTAACAAGTTCAGTGAAAGAGAGGAC` .
Result: band B

Problem: The entry to classify is `TGAATGAGGTTAAAGATCAAGGAACGTGGCGTCG` ; which class holds it?
Result: band C

Problem: Which class does `TTACCAAGGTGTAAGGTCGTTGATGCACGCCTTG` fall in?
Result: band A

Problem: Which class holds `TGTTGTAGATCAACAGGAGGTTAAGAAAGATCGA` ?
Result: band B

Problem: Place this sequence in its band: `GCGACTGGGGCAAAGCAGGTTACCTTAAGGTTGG`
Result: band A

Problem: Determine which band this sequence sits in: `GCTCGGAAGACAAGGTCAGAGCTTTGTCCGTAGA`
Result: band B

Problem: Tag the class for `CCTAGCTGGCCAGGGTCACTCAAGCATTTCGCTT`
Result: band B

Problem: Please classify: `GGAACGAGGGCAATGTTGATAGCATCTGTCGACG`
Result: band A

Problem: Class (by measured PBM binding z-score) for `TCGAGTTGGTCAAAGGTCACACACTCGAAATGCG`
Result: band C

Problem: Which category does the recorded PBM binding z-score put `CGTCCAAGGTCAGAGACGTCAGTGAATGCCGAGT` in?
Result: band C

Problem: Category of `ACTAGCAGGCCAAGTATGGGTCACTCAAACAAAG` , please.
Result: band A

Problem: Assign a category based on measured PBM binding z-score for `ATATGTAGGTTACATCCGGGTCACTCAGGCTATG` and give only the class name.
Result: band C

Problem: Which bin, given its PBM binding z-score, does `TCATATAGGTAAATGCTAGGTGAAAGGCCGATCT` occupy?
Result: band B

Problem: Field: class (PBM binding z-score) — entry: `CGATCTAGGTCAAGGACAGTGAATCTCCGCACGC`
Result: band C

Problem: Lab log: `GCTGCTATGTCAGGTTGGTCAGCTAACGGGTACG` — assign PBM binding z-score category
Result: band A

Problem: Band for the recorded PBM binding z-score of `GCTGCTAGGTCAACTGATGATCAGCTAAAGCTCG` ?
Result: band C

Problem: Bin this entry: `TCATATAGTTAAATGCTAGGTGAAAGTCCGATCT`
Result: band A

Problem: For `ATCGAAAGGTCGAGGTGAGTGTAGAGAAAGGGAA` , which PBM binding z-score bin applies?
Result: band C

Problem: Classify this sequence: `TATACAGGGTCAAAGGCCACAGTACGAATGTCGA`
Result: band C

Problem: // return the class label for `AGAATGACGTTACCAAAGATCAGGGAAACGCTTG`
Result: band A
